- SYSTEM_NAME: Nuclear receptor subfamily 1 group I member 2 (Homo sapiens, UniProt O75469)
- Sequence (O75469 whole entry): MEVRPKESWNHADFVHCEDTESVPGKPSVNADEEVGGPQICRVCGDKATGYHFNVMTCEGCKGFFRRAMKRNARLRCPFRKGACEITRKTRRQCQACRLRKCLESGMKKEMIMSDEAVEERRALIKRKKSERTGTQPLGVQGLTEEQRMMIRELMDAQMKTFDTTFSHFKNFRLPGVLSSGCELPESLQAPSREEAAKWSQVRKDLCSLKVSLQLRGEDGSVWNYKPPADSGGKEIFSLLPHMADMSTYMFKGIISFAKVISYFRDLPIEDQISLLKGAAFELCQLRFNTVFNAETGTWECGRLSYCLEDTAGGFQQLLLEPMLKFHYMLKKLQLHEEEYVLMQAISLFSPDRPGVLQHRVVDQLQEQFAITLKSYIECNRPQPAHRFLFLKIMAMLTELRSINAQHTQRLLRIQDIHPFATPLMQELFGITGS
- METHOD_NOTES: Activity at human PXR receptor transfected in human HepG2 cells assessed as receptor activation at 2 uM by luciferase based reporter gene assay relative to rifampin
- Type: cell-based
- TEST_SETTINGS: hepg2, 2 µM
PARAMETER: Activity (%)

- C[C@@](O)(c1ccc(C(=O)N(C2CC2)[C@H]2CC[C@@H](CCC(N)=O)CC2)cc1)C(F)(F)F: 100
- C[C@](O)(c1ccc(C(=O)N(C2CC2)[C@H]2CC[C@H](CCC#N)CC2)cc1)C(F)(F)F: 30
- CC(C)(C[C@H]1CC[C@H](N(C(=O)c2ccc([C@](C)(O)C(F)(F)F)cc2)C2CC2)CC1)C(N)=O: 4
- C[C@@](O)(c1ccc(C(=O)N(C2CC2)[C@H]2CC[C@H](CC#N)CC2)cc1)C(F)(F)F: 75

====

Attribute: Activity
- SYSTEM_NAME: Nuclear receptor subfamily 1 group I member 2 (Homo sapiens, UniProt O75469)
- METHOD_NOTES: Activity at human PXR receptor transfected in human HepG2 cells assessed as receptor activation at 2 uM by luciferase based reporter gene assay relative to rifampin
- Type: cell-based
- TEST_SETTINGS: hepg2, 2 µM
PARAMETER: Activity

• CC(C)(C#N)C[C@H]1CC[C@H](N(C(=O)c2ccc([C@](C)(O)C(F)(F)F)cc2)C2CC2)CC1 = 60%
• C[C@](O)(c1ccc(C(=O)N(C2CC2)C2CCN(CC3(C(N)=O)CC3)CC2)cc1)C(F)(F)F = 4%
• C[C@](O)(c1ccc(C(=O)N(C2CC2)[C@H]2CC[C@H](CC3(C(N)=O)CC3)CC2)cc1)C(F)(F)F = 6.5%
• C[C@](O)(c1ccc(C(=O)N(C2CC2)[C@H]2CC[C@@H](CCC#N)CC2)cc1)C(F)(F)F = 56%
• C[C@](O)(c1ccc(C(=O)N(C2CC2)[C@H]2CC[C@H](CC3(C#N)CC3)CC2)cc1)C(F)(F)F = 60%
• C[C@](O)(c1ccc(C(=O)N(C2CC2)C2CCN(CC3(C#N)CC3)CC2)cc1)C(F)(F)F = 3%
• C[C@@](O)(c1ccc(C(=O)N(C2CC2)[C@H]2CC[C@@H](CC#N)CC2)cc1)C(F)(F)F = 74%
• C[C@](O)(c1ccc(C(=O)N(C2CCC(CC(N)=O)CC2)C2CC2)cc1)C(F)(F)F (mixture of isomers) = 1%
• C[C@@](O)(c1ccc(C(=O)N(C2CC2)[C@H]2CC[C@H](CCC(N)=O)CC2)cc1)C(F)(F)F = 5%

====

- METHOD_NOTES: Fraction unbound in human plasma
- Format: ADME, cell-free
PARAMETER: fraction unbound

* C[C@](O)(c1ccc(C(=O)N(C2CC2)[C@H]2CC[C@H](CC3(C(N)=O)CC3)CC2)cc1)C(F)(F)F | 0.12
* C[C@](O)(c1ccc(C(=O)N(C2CC2)C2CCN(CC3(C(N)=O)CC3)CC2)cc1)C(F)(F)F | 0.48

====

- METHOD_NOTES: Clearance in rat at 0.51 mg/kg, iv
- Assay type: ADME, organism-based
- Parameters: dose 0.51 mg/kg, route intravenous
- TEST_SETTINGS: in vivo
PARAMETER: clearance (mL/min/kg)

- C[C@@](O)(c1ccc(C(=O)N(C2CC2)[C@H]2CC[C@H](CCC(N)=O)CC2)cc1)C(F)(F)F: 50

====

- METHOD_NOTES: Clearance in rat at 0.39 mg/kg, iv
- Type: ADME, organism-based
- Parameters: dose 0.39 mg/kg, route intravenous
- TEST_SETTINGS: in vivo
PARAMETER: clearance (mL/min/kg)

- CC(C)(C[C@H]1CC[C@H](N(C(=O)c2ccc([C@](C)(O)C(F)(F)F)cc2)C2CC2)CC1)C(N)=O: 21.7

====

- SYSTEM_NAME: 11-beta-hydroxysteroid dehydrogenase 1 (Homo sapiens)
- METHOD_NOTES: Inhibition of human recombinant 11beta-HSD1 expressed in baculovirus system by scintillation proximity assay
PARAMETER: IC50 (nM)

- C[C@](O)(c1ccc(C(=O)N(C2CC2)[C@H]2CC[C@@H](CCC#N)CC2)cc1)C(F)(F)F: 2.8

====

- METHOD_NOTES: Metabolic stability in rat liver microsome assessed as compound remaining after 30 mins
- Type: ADME
- TEST_SETTINGS: liver microsomes, read-out: Stability
Note to self: remaining at 0.5 h under 70% means 1, ties and anything higher get 0.

• C[C@@](O)(c1ccc(C(=O)N(C2CC2)[C@H]2CC[C@H](CC#N)CC2)cc1)C(F)(F)F = 0
• CC(C)(C#N)C[C@H]1CC[C@H](N(C(=O)c2ccc([C@](C)(O)C(F)(F)F)cc2)C2CC2)CC1 = 0
• C[C@](O)(c1ccc(C(=O)N(C2CC2)C2CCN(CC3(C#N)CC3)CC2)cc1)C(F)(F)F = 1
• C[C@](O)(c1ccc(C(=O)N(C2CC2)[C@H]2CC[C@H](CC3(C#N)CC3)CC2)cc1)C(F)(F)F = 0
• C[C@](O)(c1ccc(C(=O)N(C2CC2)[C@H]2CC[C@@H](CCC#N)CC2)cc1)C(F)(F)F = 1
• C[C@](O)(c1ccc(C(=O)N(C2CC2)[C@H]2CC[C@H](CC3(C(N)=O)CC3)CC2)cc1)C(F)(F)F = 0
• C[C@@](O)(c1ccc(C(=O)N(C2CC2)[C@H]2CC[C@H](CCC(N)=O)CC2)cc1)C(F)(F)F = 0
• C[C@](O)(c1ccc(C(=O)N(C2CC2)C2CCN(CC3(C(N)=O)CC3)CC2)cc1)C(F)(F)F = 0
• C[C@@](O)(c1ccc(C(=O)N(C2CC2)[C@H]2CC[C@@H](CC#N)CC2)cc1)C(F)(F)F = 1
• CC(C)(C[C@H]1CC[C@H](N(C(=O)c2ccc([C@](C)(O)C(F)(F)F)cc2)C2CC2)CC1)C(N)=O = 0

====

- SYSTEM_NAME: 11-beta-hydroxysteroid dehydrogenase 1 (Homo sapiens, UniProt P28845)
- Sequence (P28845 whole entry): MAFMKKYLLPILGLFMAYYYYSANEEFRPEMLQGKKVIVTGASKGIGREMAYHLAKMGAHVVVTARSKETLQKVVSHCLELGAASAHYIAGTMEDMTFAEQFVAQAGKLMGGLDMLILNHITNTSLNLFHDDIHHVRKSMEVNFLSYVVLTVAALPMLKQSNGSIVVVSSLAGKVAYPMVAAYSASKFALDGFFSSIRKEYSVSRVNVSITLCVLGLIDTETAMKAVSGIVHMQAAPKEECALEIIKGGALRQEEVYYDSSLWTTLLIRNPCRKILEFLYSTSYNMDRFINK
- METHOD_NOTES: Inhibition of human recombinant 11beta-HSD1 expressed HEK293 cells by scintillation proximity assay in presence of human serum albumin
- Assay type: cell-based
pIC50: −log10 of the molar value.
PARAMETER: pIC50

• C[C@](O)(c1ccc(C(=O)N(C2CC2)[C@H]2CC[C@@H](CCC#N)CC2)cc1)C(F)(F)F = 6.89

====

- METHOD_NOTES: Metabolic stability in rat hepatocyte assessed as compound remaining after 90 mins
- Assay type: ADME, cell-based
- TEST_SETTINGS: hepatocytes, read-out: Stability
PARAMETER: remaining at 1.5 h

• C[C@@](O)(c1ccc(C(=O)N(C2CC2)[C@H]2CC[C@H](CCC(N)=O)CC2)cc1)C(F)(F)F = < 5%
• C[C@](O)(c1ccc(C(=O)N(C2CC2)[C@H]2CC[C@H](CC3(C(N)=O)CC3)CC2)cc1)C(F)(F)F = 73%
• C[C@](O)(c1ccc(C(=O)N(C2CC2)C2CCN(CC3(C(N)=O)CC3)CC2)cc1)C(F)(F)F = 69%
• CC(C)(C[C@H]1CC[C@H](N(C(=O)c2ccc([C@](C)(O)C(F)(F)F)cc2)C2CC2)CC1)C(N)=O = 10%

====

Attribute: remaining at 1.5 h
- METHOD_NOTES: Metabolic stability in human hepatocyte assessed as compound remaining after 90 mins
- Assay type: ADME, cell-based
- TEST_SETTINGS: hepatocytes, read-out: Stability
PARAMETER: remaining at 1.5 h

* C[C@](O)(c1ccc(C(=O)N(C2CC2)[C@H]2CC[C@H](CC3(C(N)=O)CC3)CC2)cc1)C(F)(F)F | > 90%
* CC(C)(C[C@H]1CC[C@H](N(C(=O)c2ccc([C@](C)(O)C(F)(F)F)cc2)C2CC2)CC1)C(N)=O | 84%
* C[C@@](O)(c1ccc(C(=O)N(C2CC2)[C@H]2CC[C@H](CCC(N)=O)CC2)cc1)C(F)(F)F | 32%
* C[C@](O)(c1ccc(C(=O)N(C2CC2)C2CCN(CC3(C(N)=O)CC3)CC2)cc1)C(F)(F)F | > 90%
